- system_tested: T1, mouse ACVR2A (mouse, UniProt P27038 20-135, limits assumed); note: test concentration or dose not given here
- T1 construct: coated antigen of the initial ELISA
- measurement_protocol: ELISA
In this section, each of the binders is paired with its reported optical density.
Numbers only here, please. The scale is OD.

See these solved cases before continuing.
372_G12 (antibody, V domains shown, Group III) VH: EVQLLESGGGLVQPGGSLRLSCAASGFTFDSYSMNWVRQAPGKGLEWVAGINYNGGYTGYADSVKGRFTISRDNSKNTLYLQMNSLRAEDTAVYYCARGANWHDTHLDYWGQGTLVTVSS VL: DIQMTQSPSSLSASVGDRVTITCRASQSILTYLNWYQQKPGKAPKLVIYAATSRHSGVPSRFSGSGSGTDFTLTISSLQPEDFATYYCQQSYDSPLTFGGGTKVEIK
2.73
368_F09 (antibody, V domains shown, Group III) VH: EVQLLESGGGLVQPGGSLRLSCAASGFTFSSYGMNWVRQAPGKGLEWVSGINYNSGYTSYADSVKGRFTISRDNSKNTLYLQMNSLRAEDTAVYYCARGANWHDTHLDYWGQGTLVTVSS VL: DIQMTQSPSSLSASVGDRVTITCRASQSILTYLNWYQQKPGKAPKLLIYAASSLQSGVPSRFSGSGSGTDFTLTISSLQPEDFATYYCQQSYETPLTFGGGTKVEIK
2.45

Let us move to another entry and its optical density.
Could you tell me which optical density is on file for 371_C01 (antibody, V domains shown, Group III) VH: EVQLLESGGGLVQPGGSLRLSCAASGFTFSSYGMHWVRQAPGKGLEWVSSINYNGGYTGYADSVKGRFTISRDNSKNTLYLQMNSLRAEDTAVYYCARGANWHDTHLDYWGQGTLVTVSS VL: DIQMTQSPSSLSASVGDRVTITCRASQSIVSYLNWYQQKPGKAPKLLIYAATSRHSGVPSRFSGSGSGTDFTLTISSLQPEDFATYYCQQSYDNPLTFGGGTKVEIK ? 2.27
